Recorded values, source patent US12098148B2.

# pIC50 annotations
- assayed-system: human KEAP1 (N-term, residues 321-609) (Homo sapiens)
- method: biochemical
# log scale: pIC50 equals minus log10 of the concentration in mol/L

- molecule: "O=C(O)[C@H]1CCCC[C@H]1C(=O)N1CCc2c(Br)ccc(O[C@H]3CCN(C(=O)c4cncs4)C3)c2[C@H]1CN1C(=O)c2ccccc2C1=O [Example 5]"
  assayed-system: "human KEAP1 (N-term, residues 321-609) (Homo sapiens)"
  pIC50: 8.21
- molecule: "C[C@]1(C(=O)O)CCCC[C@H]1C(=O)N1CCc2c(Cl)ccc(OCc3nnn(CC(F)(F)F)c3C(F)F)c2[C@H]1CN1CCCC1=O [Example 155]"
  assayed-system: "human KEAP1 (N-term, residues 321-609) (Homo sapiens)"
  pIC50: 7.80
- molecule: "Cc1cc(C(=O)N2CC[C@H](Oc3cccc4c3[C@@H](CN3C(=O)c5ccccc5C3=O)N(C(=O)[C@@H]3CCCC[C@@H]3C(=O)O)CC4)C2)no1 [Example 4]"
  assayed-system: "human KEAP1 (N-term, residues 321-609) (Homo sapiens)"
  pIC50: 8.05
- molecule: "COc1ccc(OCc2cn(C(C)C)nn2)c2c1CCN(C(=O)[C@@H]1CCCC[C@@H]1C(=O)O)[C@@H]2CN1Cc2ccccc2C1=O [Example 61]"
  assayed-system: "human KEAP1 (N-term, residues 321-609) (Homo sapiens)"
  pIC50: 8.25
- molecule: "Cn1nnc(COc2ccc(Cl)c3c2[C@@H](CN2CCCC2=O)N(C(=O)[C@@H]2CCCC[C@]2(F)C(=O)O)CC3)c1C(F)F [Example 105]"
  assayed-system: "human KEAP1 (N-term, residues 321-609) (Homo sapiens)"
  pIC50: 8.15

pIC50 for O=C(O)[C@H]1CCCC[C@H]1C(=O)N1CCc2c(Cl)ccc(OCc3cn4cccnc4n3)c2[C@H]1CN1CCCC1=O [Example 92] ?
7.82

Field request: pIC50 | item: CC[C@]1(C(=O)O)CCCC[C@H]1C(=O)N1CCc2c(Cl)ccc(OCc3nnn(C)c3C(F)F)c2[C@H]1CN1CCCC1=O [Example 117]
8.09

Query (molecule): Cn1nnc(COc2ccc(Cl)c3c2[C@@H](CN2CC4(CC4)CC2=O)N(C(=O)[C@@H]2CCCC[C@]2(C)C(=O)O)CC3)c1C1COC1 [Example 199] ; field requested: pIC50
8.28

====

- assayed-system: human KEAP1 (N-term, residues 321-609) (Homo sapiens)
- method: biochemical
readout-kind: pIC50
Answer as the number alone; pIC50 is minus log10 of concentration in mol/L.

- compound: "Cn1nnc(COc2ccc(Cl)c3c2[C@@H](CN2CCOCC2=O)N(C(=O)[C@@H]2CCCC[C@]2(C)C(=O)O)CC3)c1C(F)F"
  pIC50: 8.29

Fill blank: measured pIC50 of the compound `Cc1ccc(OCc2nnn(C)c2C(F)(F)F)c2c1CCN(C(=O)[C@@H]1CCCC[C@]1(C)C(=O)O)[C@@H]2CN1CCCC1=O` is ____.
7.96

Could you tell me which pIC50 is on file for `CCn1ncc(COc2ccc(Br)c3c2[C@@H](CN2Cc4ccccc4C2=O)N(C(=O)[C@@H]2CCCC[C@@H]2C(=O)O)CC3)n1` ?
8.08

Return reported pIC50; argument: `Cn1cnnc1COc1ccc(Cl)c2c1[C@@H](CN1CC3(CC3)CC1=O)N(C(=O)[C@@H]1CCCC[C@]1(C)C(=O)O)CC2`
7.85

// lookup pIC50 for `C[C@H]1CCN(C[C@@H]2c3c(OCc4nnn(C)c4C(F)F)ccc(Cl)c3CCN2C(=O)[C@@H]2CCC[C@]2(C)C(=O)O)C1=O`
8.13

Looking for the measured pIC50 of `Cn1cnc2cc(COc3ccc(Br)c4c3[C@@H](CN3Cc5ccccc5C3=O)N(C(=O)[C@@H]3CCCC[C@@H]3C(=O)O)CC4)ccc21` , can you help?
8.29

# lookup: pIC50 of `O=C(O)[C@H]1CCCC[C@H]1C(=O)N1CCc2c(Br)ccc(OCc3cn(CC4CC4)nn3)c2[C@H]1CN1Cc2ccccc2C1=O`
8.35

Quick check: pIC50 of `O=C(O)[C@H]1CCCC[C@H]1C(=O)N1CCc2c(Cl)ccc(OCc3nccn3CC(F)(F)F)c2[C@H]1CN1Cc2ccccc2C1=O` ?
8.00

Form field: reported pIC50 of `O=C(O)[C@H]1CCCC[C@H]1C(=O)N1CCc2c(Cl)ccc(OCc3cccnc3)c2[C@H]1CN1CCCC1=O`
8.11

pIC50 for `Cc1ncc(C(=O)N2CC[C@H](Oc3ccc(Br)c4c3[C@@H](CN3Cc5ccccc5C3=O)N(C(=O)[C@@H]3CCCC[C@@H]3C(=O)O)CC4)C2)s1` ?
8.27

Quick one: pIC50 for `CC(=O)N1CC[C@H](Oc2cccc3c2[C@@H](CN2C(=O)c4ccccc4C2=O)N(C(=O)[C@@H]2CCCC[C@@H]2C(=O)O)CC3)C1` ?
8.25

What value of pIC50 has been reported for the following compound? `Cn1nnc(COc2ccc(Cl)c3c2[C@@H](CN2CCCC2=O)N(C(=O)[C@@H]2CC4CCC2(C(=O)O)CC4)CC3)c1C(F)F`
8.15

====

- assayed-system: human KEAP1 (N-term, residues 321-609) (Homo sapiens, UniProt Q14145)
- Sequence (Q14145 321-609): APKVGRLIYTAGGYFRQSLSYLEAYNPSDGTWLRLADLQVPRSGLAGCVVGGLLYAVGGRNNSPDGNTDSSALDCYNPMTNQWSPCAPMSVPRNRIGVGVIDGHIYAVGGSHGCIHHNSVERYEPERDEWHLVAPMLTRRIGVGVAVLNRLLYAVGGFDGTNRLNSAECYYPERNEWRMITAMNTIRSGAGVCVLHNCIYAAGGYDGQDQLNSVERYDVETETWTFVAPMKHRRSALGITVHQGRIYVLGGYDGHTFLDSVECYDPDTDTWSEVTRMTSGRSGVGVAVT
- method: biochemical
So basically: is IC50 under 8 nM? Then 1. Not under? Then 0.

- compound: "C[C@]1(C(=O)O)CCCC[C@H]1C(=O)N1CCc2c(Cl)ccc(OC3CCn4cnnc43)c2[C@H]1CN1CC2(CC2)CC1=O (stereo partly drawn) [Example 209]"
  group-label: 0

IC50 strictly < 8 nM for this compound? Cn1cnnc1COc1ccc(Br)c2c1[C@@H](CN1Cc3ccccc3C1=O)N(C(=O)[C@@H]1CCCC[C@@H]1C(=O)O)CC2 [Example 23]
0

Does the reported IC50 of the following compound sit strictly below 8 nM? Cn1cc(COc2ccc(Cl)c3c2[C@@H](CN2CC4(CC4)CC2=O)N(C(=O)[C@@H]2CCCC[C@]2(C)C(=O)O)CC3)nn1 [Example 158]
1

====

- assayed-system: human KEAP1 (N-term, residues 321-609) (Homo sapiens)
- method: biochemical
readout-kind: log10 of IC50 (log10 of the value in nM)
The figures below represent log10 of IC50, where IC50 is stated in nM.

Sample records with log10 of IC50:
- molecule: "Cc1cnnc(N2CC[C@H](Oc3ccc(Br)c4c3[C@@H](CN3Cc5ccccc5C3=O)N(C(=O)[C@@H]3CCCC[C@@H]3C(=O)O)CC4)C2)c1"
  value: 0.67
- molecule: "Cn1nnc2c1CC(Oc1ccc(Cl)c3c1[C@@H](CN1CC4(CC4)CC1=O)N(C(=O)[C@@H]1CCCC[C@]1(C)C(=O)O)CC3)C2 (single isomer, unassigned; isomer 1) [Example 215]"
  value: 1.85

Given the entry `O=C(O)[C@H]1CCCC[C@H]1C(=O)N1CCc2c(Br)ccc(OCc3nnc4ccccn34)c2[C@H]1CN1CCCC1=O` , report its measured log10 of IC50.
0.80

====

- assayed-system: human KEAP1 (N-term, residues 321-609) (Homo sapiens);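 note: fluorescence polarization competition assay of Kelch domain binding to NRF2, 12-point 1:3 dilution series from 10 µM, read after 1 h at room temperature, floor 10 nM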
- method: biochemical
readout-kind: pIC50
Note: pIC50 values are expressed as the negative base-10 logarithm of concentration in M.

Here are 5 compounds together with their reported answers.
- compound-structure-string: "CC(C)n1cc(COc2ccc(Cl)c3c2[C@@H](CN2Cc4ccccc4C2=O)N(C(=O)[C@@H]2CCCC[C@@H]2C(=O)O)CC3)nn1"
  pIC50: 8.18
- compound-structure-string: "C[C@]1(C(=O)O)CCCC[C@H]1C(=O)N1CCc2c(Cl)ccc(OCc3nnn(C4CC4)c3C(F)F)c2[C@H]1CN1CCCC1=O"
  pIC50: 8.09
- compound-structure-string: "Cn1cc(COc2ccc(Cl)c3c2[C@@H](CN2CCCC2=O)N(C(=O)[C@@H]2CCCC[C@@H]2C(=O)O)CC3)nn1"
  pIC50: 8.26
- compound-structure-string: "Cn1nnc(COc2ccc(Cl)c3c2[C@@H](CN2CC(C)(C)CC2=O)N(C(=O)[C@@H]2CCCC[C@]2(C)C(=O)O)CC3)c1C(F)F"
  pIC50: 8.14
- compound-structure-string: "Cn1cnc(COc2ccc(Br)c3c2[C@@H](CN2Cc4ccccc4C2=O)N(C(=O)[C@@H]2CCCC[C@@H]2C(=O)O)CC3)n1"
  pIC50: 8.08

May I ask what pIC50 has been recorded for `C[C@]1(C(=O)O)CCCC[C@H]1C(=O)N1CCc2c(Cl)ccc(OCc3nnn(C4CC4)c3C(F)F)c2[C@H]1CN1CC2(CC2)CC1=O` ?
8.22

// query pIC50 value for entry `C[C@]1(C(=O)O)CCC[C@H]1C(=O)N1CCc2c(Cl)ccc(OCc3nnn4c3CCCC4)c2[C@H]1CN1CC2(CC2)CC1=O`
8.12

// returns reported pIC50 for input `Cn1nnc(COc2ccc(Cl)c3c2[C@@H](CN2CC4(CC4)CC2=O)N(C(=O)[C@@H]2C[C@@H](O)CC[C@]2(C)C(=O)O)CC3)c1C(F)F`
8.15

Value lookup for pIC50; key = `O=C(NCCOc1cccc2c1[C@@H](CN1C(=O)c3ccccc3C1=O)N(C(=O)[C@@H]1CCCC[C@@H]1C(=O)O)CC2)c1nc2ccccc2o1`
7.92

Data request, read-out pIC50, for `CN(C)CCn1cc(COc2ccc(Cl)c3c2[C@@H](CN2CC4(CC4)CC2=O)N(C(=O)[C@@H]2CCCC[C@]2(C)C(=O)O)CC3)nn1`
8.19

Please report the recorded pIC50 for `CC(=O)N1CC[C@H](Oc2ccc(Br)c3c2[C@@H](CN2C(=O)c4ccccc4C2=O)N(C(=O)[C@@H]2CCCC[C@@H]2C(=O)O)CC3)C1` .
8.29

# query: pIC50 of entry `Cn1cnc2ccc(COc3ccc(Cl)c4c3[C@@H](CN3CCCC3=O)N(C(=O)[C@@H]3CCCC[C@@H]3C(=O)O)CC4)nc21`
8.01

Could you share which pIC50 value was measured for `O=C(O)[C@H]1CCCC[C@H]1C(=O)N1CCc2c(Cl)ccc(OCc3ccsn3)c2[C@H]1CN1CCCC1=O` ?
8.19

Requested field: pIC50. Item: `CC(C)n1cc(COc2ccc(Br)c3c2[C@@H](CN2CC4(CC4)CC2=O)N(C(=O)[C@@H]2CCCC[C@@H]2C(=O)O)CC3)nn1`
8.17

Bench note: what pIC50 did `Cc1onc(COc2ccc(Cl)c3c2[C@@H](CN2CCCC2=O)N(C(=O)[C@@H]2CCCC[C@]2(C)C(=O)O)CC3)c1Cl` show?
8.04

Field request: pIC50 | item: `CC(C)n1cc(COc2ccc(Br)c3c2[C@@H](CN2C[C@@H](C)CC2=O)N(C(=O)[C@@H]2CCCC[C@@H]2C(=O)O)CC3)nn1`
8.11

Report pIC50 for `O=C(O)[C@H]1CCCC[C@H]1C(=O)N1CCc2c(Cl)ccc(OCc3nccn3CC(F)F)c2[C@H]1CN1Cc2ccccc2C1=O` please.
7.89

Quick one: pIC50 for `Cc1scnc1COc1ccc(Cl)c2c1[C@@H](CN1CC3(CC3)CC1=O)N(C(=O)[C@@H]1CCCC[C@]1(C)C(=O)O)CC2` ?
8.26

Would you kindly share the measured pIC50 for `Cn1nnc(COc2ccc(Cl)c3c2[C@@H](CN2CC4(CC4)CC2=O)N(C(=O)[C@@H]2OCCC[C@@H]2C(=O)O)CC3)c1C(F)F` ?
8.35

Returns the measured pIC50 for the input compound. Input: `Cc1cnoc1COc1ccc(Cl)c2c1[C@@H](CN1CCCC1=O)N(C(=O)[C@@H]1CCCC[C@]1(C)C(=O)O)CC2`
8.25

For the compound shown here, `O=C(O)[C@H]1CCCC[C@H]1C(=O)N1CCc2c(Br)ccc(OCc3nnc4n3CCCC4)c2[C@H]1CN1Cc2ccccc2C1=O` , give the reported pIC50.
8.38

Would you kindly share the measured pIC50 for `CC(C)n1nnc(COc2ccc(Cl)c3c2[C@@H](CN2CCCC2=O)N(C(=O)[C@@H]2CCCC[C@]2(C)C(=O)O)CC3)c1C(F)F` ?
8.20

Sample `Cn1cnc(COc2ccc(Cl)c3c2[C@@H](CN2CC4(CC4)CC2=O)N(C(=O)[C@@H]2CCCC[C@]2(C)C(=O)O)CC3)c1` — what was its pIC50?
8.21

GET /values?readout=pIC50&item= `CC(C)n1cc(COc2ccc(Br)c3c2[C@@H](CN2C[C@H](C)CC2=O)N(C(=O)[C@@H]2CCCC[C@@H]2C(=O)O)CC3)nn1`
8.19

Would you kindly share the measured pIC50 for `C[C@]1(C(=O)O)CCCC[C@H]1C(=O)N1CCc2c(Cl)ccc(OCc3cncnc3C(F)F)c2[C@H]1CN1CC2(CC2)CC1=O` ?
8.28
